target: JAK1 (Homo sapiens, UniProt P23458); experiment: JAK assay (KINASE-GLO luminescent kinase assay), JAK1; assay type: biochemical; conditions: 10 nM JAK enzyme, 800 nM Abl peptide, room temperature 75 min
Sequence (P23458 whole entry): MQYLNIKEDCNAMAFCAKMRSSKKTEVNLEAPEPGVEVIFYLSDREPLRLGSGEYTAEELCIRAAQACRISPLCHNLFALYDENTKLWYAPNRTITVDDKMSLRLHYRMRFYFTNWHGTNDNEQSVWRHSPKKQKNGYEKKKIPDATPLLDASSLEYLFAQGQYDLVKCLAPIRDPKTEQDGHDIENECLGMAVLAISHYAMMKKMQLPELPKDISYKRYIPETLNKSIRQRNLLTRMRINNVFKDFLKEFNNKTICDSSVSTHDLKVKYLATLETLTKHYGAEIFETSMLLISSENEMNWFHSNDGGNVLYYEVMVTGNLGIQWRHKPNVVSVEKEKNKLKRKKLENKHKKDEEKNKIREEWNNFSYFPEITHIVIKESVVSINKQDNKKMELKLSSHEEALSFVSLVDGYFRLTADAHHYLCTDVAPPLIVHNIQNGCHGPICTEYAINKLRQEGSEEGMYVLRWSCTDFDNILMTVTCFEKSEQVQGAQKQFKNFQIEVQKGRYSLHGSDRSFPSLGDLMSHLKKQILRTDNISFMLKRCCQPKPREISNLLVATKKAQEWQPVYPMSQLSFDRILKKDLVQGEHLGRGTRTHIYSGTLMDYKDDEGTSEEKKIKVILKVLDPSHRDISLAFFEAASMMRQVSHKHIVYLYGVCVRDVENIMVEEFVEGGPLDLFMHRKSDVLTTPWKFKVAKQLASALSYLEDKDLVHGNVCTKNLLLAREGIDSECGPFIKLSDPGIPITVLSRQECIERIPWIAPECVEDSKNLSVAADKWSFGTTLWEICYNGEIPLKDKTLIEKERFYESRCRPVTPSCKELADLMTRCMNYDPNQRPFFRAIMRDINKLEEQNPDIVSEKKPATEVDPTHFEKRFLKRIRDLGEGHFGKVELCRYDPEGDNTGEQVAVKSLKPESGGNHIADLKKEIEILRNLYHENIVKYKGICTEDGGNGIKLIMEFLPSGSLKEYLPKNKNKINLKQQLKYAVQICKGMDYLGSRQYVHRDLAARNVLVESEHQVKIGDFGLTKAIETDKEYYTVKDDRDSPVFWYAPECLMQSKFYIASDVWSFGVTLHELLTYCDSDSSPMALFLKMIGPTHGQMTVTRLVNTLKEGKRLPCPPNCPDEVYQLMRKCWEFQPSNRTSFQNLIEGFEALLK
// reported IC50 for each item listed

Worked cases, IC50 given:
{"MOLECULE": "Cc1cnc(Nc2ccc3c(c2)C(=O)N(C)C3=O)nc1-c1cnn(CC2(Cl)CC2)c1 [CN1C(═O)C2═C(C═C(NC3═NC(═C]", "IC50": "< 1000 nM"}
{"MOLECULE": "Cc1cc(Nc2ncc(Cl)c(-c3cnn(CCC#N)c3)n2)on1 [CC1═NOC(═C1)NC2═NC(═C]", "IC50": "< 100 nM"}
{"MOLECULE": "Cc1cnc(Nc2cccc3c2CNC3=O)nc1-c1cnn(CC2(Cl)CC2)c1 [CC1═C(N═C(NC2═C3CNC]", "IC50": "< 100000 nM"}
{"MOLECULE": "N#CCCn1cc(-c2ccnc(NC(=O)C3CC3)n2)cn1 [O═C(NC1═NC(═CC═N1)C2═C[N]]", "IC50": "< 100000 nM"}
{"MOLECULE": "N#CCC1(Cn2cc(-c3ccnc(Nc4cc(CO)ns4)n3)cn2)CC1 [OCC1═NSC(═C1)NC2═NC(═CC═N2)C3═C[N]]", "IC50": "< 100 nM"}
{"MOLECULE": "Cc1cnc(Nc2ccc(N3CC(N(C)C)C3)cc2)nc1-c1cnn(CC2(CF)CC2)c1 [CN(C)C1CN(C1)C2═CC═C(NC3═NC]", "IC50": "< 100 nM"}
{"MOLECULE": "Cc1cnc(Nc2ccnc(CN(C)C)c2)nc1-c1cnn(CC2(CF)CCC2)c1 [CN(C)CC1═CC(═CC═N1)NC2═NC(═C]", "IC50": "< 1000 nM"}
{"MOLECULE": "Cc1ccc(Nc2ncc(C)c(-c3cnn(CC4(Cl)CC4)c3)n2)cc1S(C)(=O)=O [CC1═CC═C(NC2═NC(═C(C)C═N2)C3═C[N]]", "IC50": "< 100 nM"}

Considering Cc1cnc(Nc2cccc(CN3CCN(C)CC3)c2)nc1-c1cnn(CC2(CF)CC2)c1 [CN1CCN(CC1)CC2═CC═CC(═C2)NC3═NC(═C] , its IC50 with JAK1 (Homo sapiens, UniProt P23458) was recorded as < 1000 nM

Measured IC50 (JAK1 (Homo sapiens, UniProt P23458)), entry Cc1cnc(Nc2ccc(S(C)(=O)=O)cc2)nc1-c1cnn(CC2(Cl)CC2)c1 [CC1═C(N═C(NC2═CC═C(C═C2)[S]] : < 100 nM

I looked up Cc1cc(Nc2ncc(Cl)c(-c3cnn(CC4(N(C)C(=O)OC(C)(C)C)CC4)c3)n2)sn1 [CN(C(═O)OC(C)(C)C)C1(CC1)C[N]2C═C] and its IC50 for JAK1 (Homo sapiens, UniProt P23458) was < 1000 nM

Known value: JAK1 (Homo sapiens, UniProt P23458) IC50 of the molecule Cc1cnc(Nc2ccc(CN3CCN(C)CC3)cc2)nc1-c1cnn(CC2(CF)CC2)c1 [CN1CCN(CC1)CC2═CC═C(NC3═NC] equals < 1000 nM

Summary line: Cc1cc(Nc2ncc(C)c(-c3cnn(CC4(CF)CCC4)c3)n2)sn1 [CC1═NSC(═C1)NC2═NC═C(C)C] , JAK1 (Homo sapiens, UniProt P23458), reported IC50 = < 10 nM

Assay JAK1 (Homo sapiens, UniProt P23458), sample Cc1cc(Nc2ncc(C)c(-c3cnn(CC4(CN(C)C)CC4)c3)n2)sn1 [CN(C)CC1(CC1)C[N]2C═C(C═N2)C3═C] , IC50 read: < 100 nM

Log: JAK1 (Homo sapiens, UniProt P23458), molecule N#CCCn1cc(-c2nc(Nc3ccc(CCO)cc3)ncc2Cl)cn1 [OCCC1═CC═C(NC2═NC(═C] , IC50 = < 100 nM
